target: RIPK1 (Homo sapiens); construct: endogenous in cells; experiment: RIPK1 degradation Western Blot assay; format: cell-based; settings: human cells, 24 h incubation at 37° C., read-out: Degradation Activity (DC50, concentration at which 50% of RIPK1 kinase has been degraded)
Sequence (Q13546 whole entry): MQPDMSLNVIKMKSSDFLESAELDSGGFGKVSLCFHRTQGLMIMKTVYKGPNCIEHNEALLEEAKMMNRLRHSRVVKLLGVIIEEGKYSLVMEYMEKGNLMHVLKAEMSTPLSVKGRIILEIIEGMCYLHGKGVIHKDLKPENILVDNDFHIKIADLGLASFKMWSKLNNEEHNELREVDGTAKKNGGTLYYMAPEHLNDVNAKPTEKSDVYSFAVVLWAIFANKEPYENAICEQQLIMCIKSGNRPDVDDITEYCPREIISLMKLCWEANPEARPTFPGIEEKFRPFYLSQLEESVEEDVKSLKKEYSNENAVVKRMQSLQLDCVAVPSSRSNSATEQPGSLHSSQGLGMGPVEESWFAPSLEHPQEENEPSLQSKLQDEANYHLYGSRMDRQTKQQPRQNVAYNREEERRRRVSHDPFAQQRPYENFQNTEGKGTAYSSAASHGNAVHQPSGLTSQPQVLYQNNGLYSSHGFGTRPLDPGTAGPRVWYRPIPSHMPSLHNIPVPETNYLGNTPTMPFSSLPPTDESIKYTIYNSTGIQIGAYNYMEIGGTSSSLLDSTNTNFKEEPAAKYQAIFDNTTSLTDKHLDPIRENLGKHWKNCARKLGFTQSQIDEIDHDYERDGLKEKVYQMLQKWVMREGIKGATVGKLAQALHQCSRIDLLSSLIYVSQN
Entries and their DC50

Some solved cases for reference:
COMPOUND	DC50
Cc1ncsc1-c1ccc([C@H](CC(=O)N2CCC(N3CCN(c4ccc(C#Cc5ccc(C(=O)NCCCn6cc(-c7ccc8c(c7)CCN8C(=O)Cc7cccc(OC(F)(F)F)c7)c7c(N)ncnc76)cc5)cn4)CC3)CC2)NC(=O)[C@@H]2C[C@@H](O)CN2C(=O)[C@@H](NC(=O)C2(F)CC2)C(C)(C)C)cc1	> 10000 nM
Nc1ncnc2c1c(-c1ccc3c(c1)CCN3C(=O)Cc1cccc(OC(F)(F)F)c1)cn2CCCNC(=O)CCCCCCCCNC(=O)[C@@H]1NC2(CCCCC2)[C@@]2(C(=O)Nc3cc(Cl)ccc32)[C@H]1c1cccc(Cl)c1F	1000 to 10000 nM
Cc1ncsc1-c1ccc([C@H](C)NC(=O)[C@@H]2C[C@@H](O)CN2C(=O)[C@@H](NC(=O)CCCCCCCCC(=O)N2CCC(C(=O)N3N=CCC3c3ccccc3)CC2)C(C)(C)C)cc1 (stereo partly shown)	> 10000 nM
Cc1ncsc1-c1ccc([C@H](C)NC(=O)[C@@H]2C[C@@H](O)CN2C(=O)[C@@H](NC(=O)CCc2ccc(C#Cc3ccc(CCC(=O)NCCCn4cc(-c5ccc6c(c5)CCN6C(=O)Cc5cccc(OC(F)(F)F)c5)c5c(N)ncnc54)cc3)cn2)C(C)(C)C)cc1	< 1000 nM
Cc1ncsc1-c1ccc([C@H](CC(=O)N2CCN(c3ccc(C#Cc4ccc(C(=O)NCCCn5cc(-c6ccc7c(c6)CCN7C(=O)Cc6cccc(OC(F)(F)F)c6)c6c(N)ncnc65)cc4)cn3)CC2)NC(=O)[C@@H]2C[C@@H](O)CN2C(=O)[C@@H](NC(=O)C2(F)CC2)C(C)(C)C)cc1	< 1000 nM
Nc1ncnc2c1c(-c1ccc3c(c1)CCN3C(=O)Cc1cccc(OC(F)(F)F)c1)cn2CCCNC(=O)c1ccc(C#Cc2ccc(N3CC4(CN(C(=O)CN5CCC(c6ccc(NC7CCC(=O)NC7=O)cc6)CC5)C4)C3)nc2)cc1 (stereo not shown)	< 1000 nM

Tell me reported DC50 for Cc1ncsc1-c1ccc([C@H](C)NC(=O)[C@@H]2C[C@@H](O)CN2C(=O)[C@@H](NC(=O)CCOCCOCCOCCOCCn2cc(-c3ccc4c(c3)CCN4C(=O)Cc3cccc(OC(F)(F)F)c3)c3c(N)ncnc32)C(C)(C)C)cc1 , tested with RIPK1 (Homo sapiens).
< 1000 nM

API: value(readout= DC50, system= RIPK1 (Homo sapiens), query= Nc1ncnc2c1c(-c1ccc3c(c1)CCN3C(=O)Cc1cccc(OC(F)(F)F)c1)cn2CCCNC(=O)CCOCCOCCOCCNc1cccc2c1C(=O)C(C1CCC(=O)NC1=O)C2=O (stereo not shown) )
1000 to 10000 nM

Notebook entry, RIPK1 (Homo sapiens) assay: DC50 of Cc1ncsc1-c1ccc([C@H](C)NC(=O)[C@@H]2C[C@@H](O)CN2C(=O)[C@@H](NC(=O)CCc2ccc(C#Cc3ccc(C(=O)NCCCn4cc(-c5ccc6c(c5)CCN6C(=O)Cc5cccc(OC(F)(F)F)c5)c5c(N)ncnc54)cc3)cn2)C(C)(C)C)cc1 = ?
< 1000 nM

Which measured DC50 belongs to Nc1ncnc2c1c(-c1ccc3c(c1)CCN3C(=O)Cc1cccc(OC(F)(F)F)c1)cn2CCCNC(=O)c1ccc(C#CC2CCN(C3CCN(C(=O)CN4CCC(c5ccc(NC6CCC(=O)NC6=O)cc5)CC4)CC3)CC2)cc1 (stereo not shown) , tested on RIPK1 (Homo sapiens)?
< 1000 nM

Find the measured DC50: item O=C(NCCOCCOCCOCCNC(=O)[C@@H]1NC2(CCCCC2)[C@@]2(C(=O)Nc3cc(Cl)ccc32)[C@H]1c1cccc(Cl)c1F)c1ccnc(N2CCC(C(=O)N3N=CCC3c3ccccc3)CC2)n1 (stereo partly shown) , target or system RIPK1 (Homo sapiens).
1000 to 10000 nM

# query: DC50 | item O=C1CCC(N2C(=O)c3cccc(NCCOCCOCCOCCNC(=O)c4ccc(-c5cc(N6CCC(C(=O)N7N=CCC7c7ccccc7)CC6)ncn5)cc4)c3C2=O)C(=O)N1 (stereo not shown) | system: RIPK1 (Homo sapiens)
> 10000 nM

Return DC50 measured with RIPK1 (Homo sapiens) given this compound: Cn1c(=O)n(C2CCC(=O)NC2=O)c2ccc(CCC(=O)N3CCC(N4CCC(C#Cc5ccc(C(=O)NCCCn6cc(-c7ccc8c(c7)CCN8C(=O)Cc7cccc(OC(F)(F)F)c7)c7c(N)ncnc76)cc5)CC4)CC3)cc21 (stereo not shown)
< 1000 nM

Write down the reported DC50 of Cc1ncsc1-c1ccc([C@H](C)NC(=O)[C@@H]2C[C@@H](O)CN2C(=O)[C@@H](NC(=O)CCC(=O)NCCCn2cc(-c3ccc4c(c3)CCN4C(=O)Cc3cccc(OC(F)(F)F)c3)c3c(N)ncnc32)C(C)(C)C)cc1 , test system: RIPK1 (Homo sapiens).
1000 to 10000 nM

Lab request: please report DC50 under test system RIPK1 (Homo sapiens) for Cc1ncsc1-c1ccc([C@H](CC(=O)N2CCC(N3CCC(C#Cc4ccc(C(=O)NCCCn5cc(-c6ccc7c(c6)CCN7C(=O)Cc6cccc(OC(F)(F)F)c6)c6c(N)ncnc65)cc4)CC3)CC2)NC(=O)[C@@H]2C[C@@H](O)CN2C(=O)[C@@H](NC(=O)C2(F)CC2)C(C)(C)C)cc1
< 1000 nM

Request - read-out DC50 | tested on RIPK1 (Homo sapiens) | compound Cc1ncsc1-c1ccc([C@H](C)NC(=O)[C@@H]2C[C@@H](O)CN2C(=O)[C@@H](NC(=O)CCN2CCC(C#Cc3ccc(C(=O)NCCCn4cc(-c5ccc6c(c5)CCN6C(=O)Cc5cccc(OC(F)(F)F)c5)c5c(N)ncnc54)cc3)CC2)C(C)(C)C)cc1
< 1000 nM

Values compiled from patent US20240123073A1.
